Hello, the source for this data is patent US20170049676A1, in case you need it.

Entries and their HO-1 (pg HO-1 per μg protein) values follow.
# System: heme oxygenase 1 (HO-1)
# PROTOCOL_DESCRIPTION: Heme oxygenase 1 (HO-1) ELISA on lysates of adult fibroblasts treated with isothiocyanates (Example 2)
# Format: cell-based
# CONDITION_DETAILS: 1 μM; primary human adult dermal fibroblast cells; 24 hours; vehicle control 179 ± 28
Report the figure in pg HO-1 per μg protein without appending any unit label.

- COMPOUND: "S=C=Nc1cccc2ccccc12 [Alpha-naphthyl isothiocyanate (NITC), Alpha-naphthyl isothiocyanate]"
  UNIT_ABBREV: "pg HO-1 per μg protein"
  HO-1 (pg HO-1 per μg protein): 195
- COMPOUND: "S=C=NCc1ccccc1 [Benzyl isothiocyanate (BITC), Benzyl isothiocyanate]"
  UNIT_ABBREV: "pg HO-1 per μg protein"
  HO-1 (pg HO-1 per μg protein): 381
- COMPOUND: "C[S+]([O-])CCCCN=C=S (centres unmarked) [Sulforaphane]"
  UNIT_ABBREV: "pg HO-1 per μg protein"
  HO-1 (pg HO-1 per μg protein): 280
- COMPOUND: "C=CCN=C=S [Allyl isocyanate control, Allyl isothiocyanate]"
  UNIT_ABBREV: "pg HO-1 per μg protein"
  HO-1 (pg HO-1 per μg protein): 207

Here is another compound to look at.
Which HO-1 (pg HO-1 per μg protein) is reported for this compound? S=C=NCCc1ccccc1 [Phenethyl isothiocyanate (PEITC), Phenethyl isothiocyanate]
429
